Biological target: SRSF1 RRM1+2 YS (RRM12 YS) (human, UniProt Q07955 1-196, Y37S;Y72S)
Sequence (Q07955 1-196 Y37S/Y72S): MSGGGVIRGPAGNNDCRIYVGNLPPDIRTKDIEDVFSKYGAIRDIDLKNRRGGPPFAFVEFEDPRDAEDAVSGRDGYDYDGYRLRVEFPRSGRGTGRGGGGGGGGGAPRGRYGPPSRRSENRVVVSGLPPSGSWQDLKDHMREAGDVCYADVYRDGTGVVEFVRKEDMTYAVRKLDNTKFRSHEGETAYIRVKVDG
Test: ITC; 143 in the reviewer reply; NMR buffer: 50 mM L-Glu, 50 mM L-Arg, 0.05% beta-mercaptoethanol, 20 mM Na2HPO4 pH 7 (RRM1+2: plus 150 mM KCl, 1.5 mM MgCl2, 0.2 mM EDTA); NMR and ITC at 40 C
Conditions: protein: recombinant; tags: GB1, His
Reported endpoint: Kd (nM)
# value in nM; strip the unit string

Please fill in: Kd reported for UGGAUUUUUUUU (ssRNA) = 145
